target_under_test: Neu5Ac(a2-8)Neu5Ac(a2-3)[GalNAc(b1-4)]Gal(b1-4)Glc
test_method_notes: glycan array binding signal (z-score within array); higher = stronger binding
condition_details: glycan notation: IUPAC condensed, linker removed
The full list was thinned out, with the strongest signals kept by preference.

binder	glycan array binding signal (z-score)
Gal 8 (Homo sapiens) (protein) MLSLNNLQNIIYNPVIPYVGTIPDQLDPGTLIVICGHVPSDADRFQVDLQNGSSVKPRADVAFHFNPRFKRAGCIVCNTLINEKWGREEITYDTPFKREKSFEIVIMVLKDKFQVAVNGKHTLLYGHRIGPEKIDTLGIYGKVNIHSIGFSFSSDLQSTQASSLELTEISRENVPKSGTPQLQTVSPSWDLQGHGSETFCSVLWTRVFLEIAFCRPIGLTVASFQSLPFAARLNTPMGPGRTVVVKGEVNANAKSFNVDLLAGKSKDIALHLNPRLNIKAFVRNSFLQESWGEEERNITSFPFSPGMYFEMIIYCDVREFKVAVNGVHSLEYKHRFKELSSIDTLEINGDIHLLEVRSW	-0.398
